- Tested on: BT-549 breast
- ASSAY_METHOD_TEXT: NCI-60 one-dose screen, 48 h
- CONDITION_SUMMARY: 10 µM unless noted
Compounds without any hit were thinned out: in the full panel of roughly 83,000, 20% have a hit. Activity calls are given as the source filed them. How the source made its calls: active means growth percent below 10; inactive means the rest.
Classes used: active, inactive

>>> group_label("c1cn2cc(-c3ccc4ncn(C5CCCCC5)c4c3)nc(-c3ccc4c(c3)ncn4C3CCCCC3)c2n1")
"active"
>>> group_label("COc1cc(CN(c2ccc(C)cc2)C2OC(=O)c3ccccc32)cc(OC)c1OC (stereo unspecified)")
"inactive"
>>> group_label("CCOC(=O)C(Cc1ccccc1)n1c(O)c(/C=N/c2ncc(Cc3ccc(Cl)cc3Cl)s2)sc1=S (stereo unspecified)")
"active"
>>> group_label("ClC1=NC(Cl)C(Cl)=N/C1=N\\c1ncn[nH]1 (stereo unspecified)")
"inactive"
>>> group_label("O=C(c1ccccc1)c1cccc(C(Br)Br)c1")
"inactive"
>>> group_label("O=C(/C=C/c1ccccc1)c1c[nH]c2ccccc2c1=O")
"active"
>>> group_label("CCN(CC)CCNC(=O)C(F)(F)C(F)(F)C(F)(F)F")
"inactive"
>>> group_label("NNc1ccc(S(N)(=O)=O)cc1")
"inactive"
>>> group_label("O=C(CCCN1CCC(O)(c2ccc(Br)cc2)CC1)c1ccc(F)cc1")
"inactive"
>>> group_label("C#CCO[C@H]1CC[C@H](OCC#C)[C@@H]2[C@H]1[C@H]1C[C@@H]3[C@@]4(C)CCC[C@@](C)(C(=O)OC)[C@@H]4CC[C@@]23C=C1C(C)C")
"inactive"
>>> group_label("COc1cc(CN2CCC(N3CCCC3=O)c3ccccc32)cc(OC)c1OC (stereo unspecified)")
"inactive"
>>> group_label("O=C(CCl)Nc1cc(O)c2c(c1)C(=O)c1cccc(O)c1C2=O")
"active"
>>> group_label("COc1ccc(/C(C)=N/NC(=O)c2ccc(S(C)(=O)=O)cc2)cc1OC")
"inactive"
>>> group_label("Fc1ccc(-c2cnc3nonc3n2)c(F)c1")
"inactive"
>>> group_label("C/C(=N\\Nc1ccc([N+](=O)[O-])cn1)c1ccc(N)cc1")
"inactive"
>>> group_label("COc1ccc(C2=NNC(c3ccc(Oc4nc5c(c(=O)n(C)c(=O)n5C)n4C)c(OC)c3)C2)cc1 (stereo unspecified)")
"inactive"
>>> group_label("CCOc1cc(/C=N\\NC(=O)C[N+](C)(C)C)ccc1O")
"inactive"
>>> group_label("Clc1ccc(-c2cnc3nonc3n2)s1")
"inactive"
>>> group_label("CN1C(=O)N(C)C2C1NN=c1s/c(=C\\c3ccc(C(F)(F)F)cc3)c(=O)n12 (stereo unspecified)")
"inactive"
>>> group_label("C/C(=N\\NC(=O)CSc1nc2ccccc2c(=O)n1CCc1ccc(S(N)(=O)=O)cc1)c1ccc(Br)cc1")
"inactive"
>>> group_label("O=C1/C(=C/N2N=C(c3ccc(Cl)cc3)CC2c2ccccc2O)SC(=S)N1c1cccc(C(F)(F)F)c1 (stereo unspecified)")
"inactive"

----------
- Test system: SK-MEL-5 melanoma
- ASSAY_METHOD_TEXT: NCI-60 one-dose screen, 48 h
- CONDITION_SUMMARY: 10 µM unless noted
This is part of a sample that, as a whole, favours compounds with a hit. Of some 83,000 tested, about 20% had one in any assay. Active and inactive are the calls of the source. How the source made its calls: active means growth percent below 10; inactive means the rest.
Classes used: t for active, f for inactive

>>> group_label("COC(=O)[C@@H](Cc1c[nH]c2ccccc12)NC(=O)/C=C/c1ccccc1")
"f"
>>> group_label("C#C[C@]1(O)CC[C@H]2[C@@H]3CC=C4c5sc(-c6cccc(Br)c6)nc5CC[C@]4(C)[C@H]3CC[C@@]21C")
"f"
>>> group_label("COc1ccc2[nH]cc(C3(c4c[nH]c5ccc(OC)cc45)C(=O)Nc4ccc(Cl)cc43)c2c1")
"f"
>>> group_label("Clc1cc(Cl)cc(-c2cnc3nonc3n2)c1")
"f"
>>> group_label("O=C(Nc1cccc(-n2ccc3c(NC(=O)c4ccccc4)nccc32)c1)c1ccc(N2CCOCC2)c(C(F)(F)F)c1")
"t"
>>> group_label("Nc1c(Br)cc2c(c1Br)Cc1cc(Cl)ccc1-2")
"f"
>>> group_label("O=C1CCCN1C(O)CCN(Cc1ccccc1)Cc1ccc(Cl)cc1 (stereo not given)")
"f"
>>> group_label("COc1ccccc1CNCCCN1C(=O)c2ccc3c4c(ccc(c24)C1=O)C(=O)N(CCCNCCCN)C3=O")
"t"
>>> group_label("CCCCCCCCN=C(NCCCCCCCC)SCc1cccc2ccccc12")
"t"
>>> group_label("COc1ccc(Nc2nc(N)nc3c(=O)[nH]ccc23)cc1")
"f"

Each recorded value in this set is attributed to PubChem BioAssay (NCI).
